Quick list: CLint scaled per entry.
- run.description: Metabolic stability in human liver microsome assessed as intrinsic clearance preincubated for 10 mins followed by NADPH addition and measured upto 60 mins by LC-MS/MS analysis
- Format: ADME
- protocol.conditions: liver microsomes, time < 70 min, read-out: CLH

- compound: "O=C(O)Cc1ccccc1Nc1c(Cl)cccc1Cl [DICLOFENAC]"
  CLint scaled: "113 mL/min/kg"
- compound: "CCc1cccc(CC)c1N1CCn2cc(-c3nc(Nc4ccc(N5CCN(C(C)=O)CC5)cc4OC)nc4[nH]ncc34)cc2C1=O"
  CLint scaled: "33.5 mL/min/kg"

###

- system: Dual specificity protein kinase TTK (Homo sapiens)
- Sequence (P33981 whole entry): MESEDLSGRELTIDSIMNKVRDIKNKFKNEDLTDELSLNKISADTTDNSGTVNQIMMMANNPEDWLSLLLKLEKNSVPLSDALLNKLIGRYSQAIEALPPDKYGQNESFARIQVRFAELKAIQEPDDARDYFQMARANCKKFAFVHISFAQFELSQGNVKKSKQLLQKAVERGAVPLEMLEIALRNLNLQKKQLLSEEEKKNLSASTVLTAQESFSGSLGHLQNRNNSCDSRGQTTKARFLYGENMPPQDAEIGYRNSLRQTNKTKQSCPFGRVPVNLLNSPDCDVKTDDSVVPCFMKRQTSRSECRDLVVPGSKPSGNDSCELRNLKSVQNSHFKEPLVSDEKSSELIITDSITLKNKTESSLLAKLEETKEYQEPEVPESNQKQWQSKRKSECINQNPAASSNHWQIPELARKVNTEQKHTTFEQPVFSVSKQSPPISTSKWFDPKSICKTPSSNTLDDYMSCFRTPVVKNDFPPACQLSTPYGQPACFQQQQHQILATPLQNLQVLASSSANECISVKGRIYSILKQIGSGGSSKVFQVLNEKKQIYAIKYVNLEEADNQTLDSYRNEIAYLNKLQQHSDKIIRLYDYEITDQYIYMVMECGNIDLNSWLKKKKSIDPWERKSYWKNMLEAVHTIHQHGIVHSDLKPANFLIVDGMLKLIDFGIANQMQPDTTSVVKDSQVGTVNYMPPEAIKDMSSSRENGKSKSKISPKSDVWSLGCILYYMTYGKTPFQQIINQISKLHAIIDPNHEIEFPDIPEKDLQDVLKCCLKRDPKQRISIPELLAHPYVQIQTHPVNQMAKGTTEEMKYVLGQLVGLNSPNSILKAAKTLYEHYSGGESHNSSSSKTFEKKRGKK
- run.description: Inhibition of Mps1 (unknown origin) pretreated for 10 mins followed by substrate addition and measured after 60 mins in presence of ATP by ADP-glo kinase assay
Quick list: IC50 per entry.

- smiles.record: "COc1cc(N2CCN(C(C)=O)CC2)ccc1Nc1nc(-n2ccc(C(=O)Nc3c(C)cccc3C)c2)c2cn[nH]c2n1"
  system: "Dual specificity protein kinase TTK (Homo sapiens)"
  inequality.sign: "="
  IC50 [nM]: 8.52
- smiles.record: "CCc1cccc(CC)c1NC(=O)c1ccn(-c2nc(Nc3ccc(N4CCN(C(C)=O)CC4)cc3NC(C)=O)nc3[nH]ncc23)c1"
  system: "Dual specificity protein kinase TTK (Homo sapiens)"
  inequality.sign: ">"
  IC50 [nM]: 1000
- smiles.record: "C=CC(=O)Nc1cc(N2CCN(C(C)=O)CC2)ccc1Nc1nc(-c2cc3n(c2)CCN(c2c(CC)cccc2CC)C3=O)c2cn[nH]c2n1"
  system: "Dual specificity protein kinase TTK (Homo sapiens)"
  inequality.sign: ">"
  IC50 [nM]: 1000
- smiles.record: "CCc1cccc(CC)c1NC(=O)c1ccn(-c2nc(Nc3ccc(N4CCN(C(C)=O)CC4)cc3OC)nc3[nH]ncc23)c1"
  system: "Dual specificity protein kinase TTK (Homo sapiens)"
  inequality.sign: "="
  IC50 [nM]: 4.03
- smiles.record: "C=C(F)C(=O)Nc1cc(N2CCN(C(C)=O)CC2)ccc1Nc1nc(-n2ccc(C(=O)Nc3c(CC)cccc3CC)c2)c2cn[nH]c2n1"
  system: "Dual specificity protein kinase TTK (Homo sapiens)"
  inequality.sign: ">"
  IC50 [nM]: 1000
- smiles.record: "COc1cc(N2CCC(N(C)C)CC2)ccc1Nc1nc(OC2CCCC2)c2c(-c3ccc(OC)c(OC)c3)n[nH]c2n1"
  system: "Dual specificity protein kinase TTK (Homo sapiens)"
  inequality.sign: "="
  IC50 [nM]: 4.84

###

- Tested on: MV4-11
- run.description: Antiproliferative activity against human MV4-11 cells assessed inhibition of cell growth incubated for 72 hrs by CCK-8 assay relative to control
- Format: functional
Quick list: inhibition (INH) per entry.
recorded.metric: inhibition (INH)

- smiles.record: "COc1cc(N2CCC(N(C)C)CC2)ccc1Nc1nc(OC2CCCCC2)c2c(-c3ccc(OC)c(OC)c3)n[nH]c2n1"
  endpoint.value: "20.47%"
- smiles.record: "COc1cc(N2CCOCC2)ccc1Nc1nc(OC2CCCC2)c2c(-c3ccc(OC)c(OC)c3)n[nH]c2n1"
  endpoint.value: "-22.73%"
- smiles.record: "COc1cc(N2CCCCC2)ccc1Nc1nc(OC2CCCC2)c2c(-c3ccc(OC)c(OC)c3)n[nH]c2n1"
  endpoint.value: "-21.2%"
- smiles.record: "COc1cc(N2CCC(N(C)C)CC2)ccc1Nc1nc(OC2CCCC2)c2c(-c3ccc(OC)c(OC)c3)n[nH]c2n1"
  endpoint.value: "21.89%"
- smiles.record: "COc1cc(N2CCC(N(C)C)CC2)ccc1Nc1nc(OC2CC2)c2c(-c3ccc(OC)c(OC)c3)n[nH]c2n1"
  endpoint.value: "-17.18%"
- smiles.record: "COc1cccc(-c2n[nH]c3nc(Nc4ccc(N5CCC(N(C)C)CC5)cc4OC)nc(OC4CCCC4)c23)c1"
  endpoint.value: "-1.1%"

meta.source: ChEMBL document CHEMBL5360570
